- study-system: T1, human CD19 (on Raji cells, CD19+ homo sapiens Burkitt's lymphoma) (human, UniProt P15391 20-556)
- T1 construct: whole, on cells; also called B-lymphocyte antigen CD19; B4
- T1 sequence (looked up): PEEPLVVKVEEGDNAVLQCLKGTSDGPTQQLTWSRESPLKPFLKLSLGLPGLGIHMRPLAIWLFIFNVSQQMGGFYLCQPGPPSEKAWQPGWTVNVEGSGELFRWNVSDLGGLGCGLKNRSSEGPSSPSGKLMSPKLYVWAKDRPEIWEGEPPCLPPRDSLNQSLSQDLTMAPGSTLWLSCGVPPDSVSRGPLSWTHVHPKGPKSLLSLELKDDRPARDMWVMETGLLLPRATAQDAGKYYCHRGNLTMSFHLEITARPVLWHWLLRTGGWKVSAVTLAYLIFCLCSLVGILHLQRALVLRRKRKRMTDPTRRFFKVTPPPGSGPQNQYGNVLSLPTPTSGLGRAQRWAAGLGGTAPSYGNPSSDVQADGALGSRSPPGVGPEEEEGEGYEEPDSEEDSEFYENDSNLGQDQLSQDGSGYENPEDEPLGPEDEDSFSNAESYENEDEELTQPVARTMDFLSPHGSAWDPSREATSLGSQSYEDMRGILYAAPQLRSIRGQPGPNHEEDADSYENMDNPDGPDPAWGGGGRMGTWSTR
- measurement-notes: flow cytometry titration on Raji cells, anti-His FITC; scFv at log(nM) 2.045758
outcome-measure: geometric mean (FACS titration)
Just the number, please, no unit attached.

// known answers, use as guide
binder	geometric mean (FACS titration)
AS-scFv (scFv, leader left out here) scFv: DIQMTQSPSTLSASVGDRVTITCRASQDISKYLNWYQQKPDQAPKLLIKHTSRLHSGVPSRFSGSGSGTDFTFTISSLQPEDIATYYCQQGNTLPYTFGQGTKLEIKGSTSGSGKPGSGEGSTKGQVQLQESGPGLVKPSGTLSLTCAVSGVSLPDYGVSWIRQPPGKGLEWIGVIWGSETTYYNSALKSRVTISRDNSKNTLYLQMNSLRAEDTAVYYCAKHYYYGGSYAMDYWGQGTLVTVSSHHHHHH	62.4
JS-scFv (scFv, leader left out here) scFv: DIQMTQSPSSLSASVGDRVTITCRASQDISKYLNWYQQKPDQAPKLLIKHTSRLHSGVPSRFSGSGSGTDYTLTISSLQPEDFATYYCQQGNTLPYTFGQGTKLEIKGSTSGSGKPGSGEGSTKGEVQLVESGGGLVQPGRSLRLSCTASGVSLPDYGVSWIRQPPGKGLEWIGVIWGSETTYYNSALKSRFTISRDNSKNTLYLQMNSLRAEDTAVYYCAKHYYYGGSYAMDYWGQGTLVTVSSHHHHHH	46.6
SS-scFv (scFv, leader left out here) scFv: DIQMTQSPSFLSASVGDRVTITCRASQDISKYLNWYQQKPDQAPKLLIKHTSRLHSGVPSRFSGSGSGTDFTFTISSLQPEDIATYYCQQGNTLPYTFGQGTKLEIKGSTSGSGKPGSGEGSTKGEVQLVESGGGLVQPGRSLRLSCTASGVSLPDYGVSWVRQPPGKGLEWIGVIWGSETTYYNSALKSRFTISRDNSKNTLYLQMNSLRAEDTAVYYCAKHYYYGGSYAMDYWGQGTLVTVSSHHHHHH	51.4

Proceeding to the next binder to report its geometric mean (FACS titration).
Inquiry: Suppose we examine the binder NS-scFv (scFv, leader left out here) scFv: DIQMTQSPSSLSASVGDRVTITCRASQDISKYLNWYQQKPGKAVKLLIYHTSRLHSGVPSRFSGSGSGTDYTLTISSLQPEDIATYFCQQGNTLPYTFGGGTKLEIKGSTSGSGKPGSGEGSTKGQVQLQESGPGLVKPSETLSVTCTVSGVSLPDYGVSWIRQPPGKGLEWLGVIWGSETTYYNSALKSRLTISKDTSKNQVFLKMSSLTAADTAIYYCAKHYYYGGSYAMDYWGQGTLVTVSSHHHHHH ; what geometric mean (FACS titration) value has been reported?
Reply text: 56.3
